System: SF-539 CNS
assay-notes: NCI-60 one-dose screen, 48 h
measurement-setup: 10 µM unless noted
Compounds without any hit were thinned out: in the full panel of roughly 83,000, 20% have a hit. Activity calls are given as the source filed them. The calls were made as follows: active = growth percent below 10; inactive = the rest.
Classes used: true = active, false = inactive

Clc1ccc2c(c1)nnn1c3ncccc3c(Br)c21 : false
O=C1c2ccccc2OC=C(c2ccccc2)N1CCCCN1CCCCC1 : false
C/C(=N/NC(=O)Cn1c2ccccc2c2ccncc21)c1cccs1 : false
COc1cc(/C=C\c2cc(/C=C\c3ccc(O)c(OC)c3)n(C(=O)CNc3ccccc3OC)n2)ccc1O : false
CN1CCN(C(=O)/C=C/c2ccc([N+](=O)[O-])o2)CC1 : false
Cc1[nH]c2ccc(F)cc2c1CCNC(=O)C1CCN(C(=O)c2ccc(-c3ccccc3)cc2)CC1 : false
c1ccc(CNCCN(CCNCc2ccccn2)Cc2ccc3ccccc3c2)nc1 : true
COc1ccc(-c2nn(-c3ccc(NC(=O)c4cc(C(F)(F)F)cc(C(F)(F)F)c4)cc3)cc2-c2ccncc2)cc1Cl : false
FC(F)(F)c1cn(CCN2CCOCC2)c2ncnc(Cl)c12 : false
NC(N)=N/N=C/c1ccc([N+](=O)[O-])cc1 : false

* * *

System: 786-0 renal
assay-notes: NCI-60 one-dose screen, 48 h (100 = growth as untreated, 0 = no growth, -100 = all killed)
measurement-setup: 10 µM unless noted
About 83,000 compounds went through this panel and 20% of them were active in at least one assay; those are over-represented in the sample as a whole.
Quick list: growth per entry.
property-name: growth (%)

COc1ccc(-c2cc3ccc(N(C)C)cc3nc2N)c(F)c1 : 48.3
Nc1nccc(=S)[nH]1 : 99.7
CCNc1cc(S(=O)(=O)O)ccc1C : 99.8
COc1ccc(Cl)cc1NC(=O)c1cc2c([nH]1)-c1nc(NC(=O)C(C)(C)C)sc1CC2 : 93.2
CC1(C)CC(=O)C2=C(C1)OC1=C(C(=O)CC(C)(C)C1)C2c1ccc(OCc2cn(-c3ccc(F)cc3F)nn2)cc1 : 120
Oc1ccc(O)c(-[n+]2ccccc2)c1 : 95.3
COc1ccc2c(c1)nnn1c3ncccc3c(N=O)c21 : -63.1
C=C1C(=O)O[C@H]2[C@H]1CC/C(C(=O)Nc1ccc(OC)c(C(N)=O)c1O)=C\CC[C@@]1(C)O[C@@H]21 : 43.1
Cc1ccccc1C[P+](c1ccccc1)(c1ccccc1)c1ccccc1 : 40.7
CN(C)c1ccc(/C=N/n2c(-c3cc(F)c(Cl)cc3Cl)nn(CN3CCOCC3)c2=S)cc1 : 101
O=C(Nc1ccc(F)cc1)Nc1ccc(Cl)c([N+](=O)[O-])c1 : 26.7

* * *

System: A498 renal
assay-notes: NCI-60 one-dose screen, 48 h (100 = growth as untreated, 0 = no growth, -100 = all killed)
measurement-setup: 10 µM unless noted
Compounds without any hit were thinned out: in the full panel of roughly 83,000, 20% have a hit. Active and inactive are the calls of the source. The calls were made as follows: active = growth percent below 10; inactive = the rest.
property-name: growth

Cc1cc2c(cc1C)N(C(=O)CCl)CCN2C(=O)CCl : 85% (inactive)
COc1ccc(-c2nn(-c3ccc(NC(=O)c4cc(Cl)cc(Cl)c4)cc3)cc2-c2ccncc2)cc1Cl : 50.9% (inactive)
CCc1ccc(C2=C/C(=C/c3ccc(Cl)cc3)C(=O)N2CCc2ccc(S(N)(=O)=O)cc2)cc1 : 33.1% (inactive)
C=C1C(=O)O[C@H]2[C@H]1CC/C(COC(=O)n1ccnc1C)=C\CC[C@@]1(C)O[C@@H]21 : 105% (inactive)
CN(C)c1ncc(C#Cc2c(F)cccc2F)c2ccccc12 : 100% (inactive)
CC/C(=C(\CC)c1ccc(OCCN(CC)CC)cc1)c1ccc(OCCN(CC)CC)cc1 : 43.4% (inactive)
CCCCNC(=O)Oc1ccc(/C(=C(/CC)Cc2ccccc2)c2ccc(OCCCN(C)C)cc2)cc1 : 76.2% (inactive)
CCCCOc1nc2ccc(Cl)cc2cc1/C=C/C(=O)/C=C/c1ccc(OC)cc1 : 101% (inactive)
COc1ccc(-c2c(NC(=O)Nc3ccc(Cl)c(C(F)(F)F)c3)cnn2-c2ccc(S(N)(=O)=O)cc2)cc1 : 26.8% (inactive)
O=C(Nc1ccc(-n2ccc3c(NC(=O)c4ccccc4)ncnc32)cc1)c1cccc(C(F)(F)F)c1 : 87.5% (inactive)
Cc1c(Cl)ccc2c(C(=O)Cl)cc(-c3ccccc3)nc12 : 84.4% (inactive)
CCCC(C)(C)COC(=O)c1cccc(N)c1 : 88.6% (inactive)
Cc1cn(-c2nc3c(c(NCc4ccccc4)n2)COCC3)c2cccc(C(N)=O)c12 : 85.1% [0.5 µM] (inactive)
COc1ccc(OC)c(NCC(=O)n2nc(/C=C\c3ccc(O)c(OC)c3)cc2/C=C\c2ccc(O)c(OC)c2)c1 : 34.1% (inactive)
CCC1S/C(=N\N=C(/C)c2cc3ccccc3o2)N(c2ccccc2)C1=O (centres undefined) : 136% (inactive)
O=C1/C(=C/c2cccc3cnccc23)Cc2cc(F)ccc21 : 97.2% (inactive)
Cc1cccc(NC(=O)CCc2ccc(N3C(N)=NC(N)=NC3(C)C)cc2)c1 : 95.2% (inactive)
O=C(Nc1ccc(-n2ccc3c(NC(=O)c4ccccc4)nccc32)cc1)c1ccc(Cl)c(C(F)(F)F)c1 : 63.6% (inactive)
COc1cc2c(cc1OCCCCC(=O)Nc1ccc(-c3nc4ccccc4s3)cc1)N=C[C@@H]1CCCN1C2=O : -79.3% (active)

* * *

System: NCI/ADR-RES ovarian
assay-notes: NCI-60 one-dose screen, 48 h
measurement-setup: 10 µM unless noted
The panel holds about 83,000 compounds, 20% with a hit somewhere; the sample as a whole holds those more often. Activity calls are given as the source filed them. Rule for the calls: active = growth percent below 10; inactive = the rest.
Classes used: t for active, f for inactive

COc1ccc(CCNC=O)cc1OC : f
COc1ccc(-c2nnc(SCC(=O)Nc3ccc(C(=O)/C=C/c4ccccc4)cc3)o2)cc1OC : f
CCOC(=O)CSc1nnc(-c2cc3c([nH]c4ccccc43)c(-c3cccc(O)c3)n2)n1-c1ccc(C)cc1 : f
CC(=O)c1cc2c(N)c(C(=O)Nc3cccc(Cl)c3)sc2nc1C : f
Cc1nccc2c3ccc(OCc4cn(-c5ccc(Br)cc5)nn4)cc3n(CCCc3ccccc3)c12 : t
CC(=O)c1ccc2c(c1)C1C=CCC1[C@H](c1cc3c(cc1Br)OCO3)N2 (stereo not given in full) : f
Cc1ccc2c(c1)Nc1ccc(C)cc1C2(C)C : f
O=C(C[n+]1cccc(Br)c1)c1ccc2c(c1)CCCC2 : f
CC(=O)Cc1cccnc1 : f
COc1ccc(-c2nn(-c3ccc(NC(=O)Nc4ccc(Cl)c(Cl)c4)cc3)cc2-c2ccncc2)cc1Cl : f

* * *

Test system: RXF 393 renal
assay-notes: NCI-60 one-dose screen, 48 h (100 = growth as untreated, 0 = no growth, -100 = all killed)
measurement-setup: 10 µM unless noted
Protocol: Cells are grown in 96 well plates and exposed to the test compound for 48 hours. Compounds are tested at a single concentration, which is 10^-5 M for most compounds. The reported endpoint is percent growth (GI% or GIPRCNT), where numbers from 0 - 100% represent growth inhibition, and numbers from -100% - 0 represent cell death. For example, a value of 40 represents 60% growth inhibition. A value of 0 means no net growth occurred over the course of the experiment. […]
The panel holds about 83,000 compounds, 20% with a hit somewhere; the sample as a whole holds those more often.
So basically, if growth comes in under 50% it's true (1), and if it's 50% or more it's false (0).

O=C(Nc1cccc(-n2ccc3c(NC(=O)c4ccccc4)nccc32)c1)c1cccc(C(F)(F)F)c1 : true (1)
Nc1ncnc2c1c(-c1ccc(Oc3ccccc3)cc1)nn2C[C@@H]1SSC[C@H]1O : true (1)
CCN(CC)CCNCC(O)Cc1ccc(OC)cc1 (centres undefined) : false (0)
COc1ccc(-c2cc3ccc(N(C)C)cc3nc2N)c(F)c1 : true (1)
COc1ccc(/C(Cl)=N/N=C(\Cl)c2cc(OC)c(OC)c(OC)c2)cc1OC(C)=O : false (0)
Cc1ccc2nc(-c3ccc(-n4on4-c4ccc(/C=C/c5ccc(-n6on6-c6ccc(-c7nc8ccc(C)cc8s7)cc6)cc5S(=O)(=O)O)c(S(=O)(=O)O)c4)cc3)sc2c1 : false (0)
COc1cc(NC(C)CCCN2C(=O)c3ccccc3C2=O)c2nc(C)ccc2c1OC (centres undefined) : false (0)
Cc1nc(-c2ccc(Cl)cc2)ccc1NC(=O)Nc1cccc(C(F)(F)F)c1 : false (0)
O=C(Nc1ccc(-n2ccc3c(NC(=O)c4ccccc4)nccc32)cc1)c1cccc(C(F)(F)F)c1 : true (1)
CC(Cl)(CCl)CS(=O)(=O)c1ccc(Cl)cc1 (centres undefined) : false (0)
COc1ccc(CNc2nc3ccccc3c3c(=O)c4ccccc4sc23)cc1OC : false (0)
COc1ccc2c(c1)O/C(=C/c1ccc(OCC(=O)Nc3ccc(S(N)(=O)=O)cc3)cc1)C2=O : false (0)
O=C(Cn1c2ccccc2c2ccncc21)N/N=C\c1ccc2ccccc2c1 : true (1)
COc1ccccc1N1CCN(CCCOc2ccc(OCCCN3CCN(c4ccccc4OC)CC3)c(C(=O)c3cc(OC)c(OC)c(OC)c3)c2)CC1 : false (0)
O=C(O)c1cc2ccccc2cc1Nc1ccccc1 : false (0)
COc1ccc2c(-c3ccc(F)cc3)c(C#N)c(=NC(C)=O)oc2c1 : true (1)
C#C[C@@]1(O)[C@@H](CO)O[C@@H](n2cc(Br)c3c(Cl)ccnc32)[C@@H]1O : true (1)
S=c1n(CNc2ccc(Cl)nn2)nc(-c2cc(Cl)cc(Cl)c2Cl)n1/N=C/c1ccc(Cl)cc1 : false (0)
